- EXPERIMENTAL PROTOCOL: Evaluation in PRK cell cultures for cytotoxicity that is to cause microscopically detectable alteration of normal cell morphology
- Assay type: functional
- CONDITION PARAMETERS: Oryctolagus cuniculus
QUANTITY MEASURED: MCC

MOLECULE | DATA VALUE
Cn1c2c(c3ccccc31)CCN1OCSC[C@@H](N)[C@@H]21 | > 40 µg/mL
N[C@@H]1CSCON2CCc3c([nH]c4ccccc34)[C@@H]12 | 40 µg/mL
c1ccc2c3c([nH]c2c1)C1CCSCON1CC3 (stereo not given) | > 200 µg/mL
NC(=O)c1ncn([C@@H]2O[C@H](CO)[C@@H](O)[C@H]2O)n1 | > 400 µg/mL
Nc1nccc2c1ncn2[C@@H]1C[C@H](CO)[C@@H](O)[C@H]1O | > 400 µg/mL
N[C@H]1CSCON2CCc3c([nH]c4ccccc34)[C@@H]12 | > 10 µg/mL
O=c1[nH]c(=O)n([C@H]2C[C@H](O)[C@@H](CO)O2)cc1/C=C/Br | > 400 µg/mL
Cn1c2c(c3ccccc31)CCN1OCSC[C@@H](N)[C@H]21 | 40 µg/mL
C[C@@H]1CSCON2CCc3c([nH]c4ccccc34)[C@H]12 | > 100 µg/mL
N[C@@H]1CSCON2CCc3c([nH]c4ccccc34)[C@H]12 | > 10 µg/mL

* * *

A collection of molecules and their measured MIC
- Test system: HeLa
- EXPERIMENTAL PROTOCOL: Evaluation for antiviral activity against polio virus-1 in HeLa cell cultures (Concentration required to reduce virus-induced cytopathogenicity by 50%)
- Format: functional
- CONDITION PARAMETERS: Homo sapiens
QUANTITY MEASURED: MIC

STRUCTURE | QUANTITY MEASURED | DATA VALUE
O=c1[nH]c(=O)n([C@H]2C[C@H](O)[C@@H](CO)O2)cc1/C=C/Br | MIC | > 400 µg/mL
C[C@@H]1CSCON2CCc3c([nH]c4ccccc34)[C@H]12 | MIC | > 40 µg/mL
Cn1c2c(c3ccccc31)CCN1OCSC[C@@H](N)[C@H]21 | MIC | > 10 µg/mL
O[C@@H]1CSCON2CCc3c([nH]c4ccccc34)[C@@H]12 | MIC | > 100 µg/mL
COc1ccc2[nH]c3c(c2c1)CCN1OCSC[C@@H](N)[C@H]31 | MIC | > 1 µg/mL

* * *

- EXPERIMENTAL PROTOCOL: Evaluation for antiviral activity against vaccinia virus in primary rabbit kidney cell cultures(PRK) (Concentration required to reduce virus-induced cytopathogenicity by 50%)
- Format: functional
- CONDITION PARAMETERS: Oryctolagus cuniculus
QUANTITY MEASURED: MIC (µg/mL)

STRUCTURE | QUANTITY MEASURED | INEQUALITY SIGN | DATA VALUE
C[C@@H]1CSCON2CCc3c([nH]c4ccccc34)[C@H]12 | MIC | > | 100
O[C@@H]1CSCON2CCc3c([nH]c4ccccc34)[C@@H]12 | MIC | > | 100
N[C@@H]1CSCON2CCc3c([nH]c4ccccc34)[C@H]12 | MIC | = | 0.1
COc1ccc2[nH]c3c(c2c1)CCN1OCSC[C@@H](N)[C@@H]31 | MIC | = | 0.02

* * *

A collection of compounds and their measured log10(MIC)
- System: Vero
- EXPERIMENTAL PROTOCOL: Evaluation for antiviral activity against Sindbis virus in Vero cell cultures (Concentration required to reduce virus-induced cytopathogenicity by 50%)
- Format: functional
- CONDITION PARAMETERS: Chlorocebus sabaeus
QUANTITY MEASURED: log10(MIC) (log10 of the value in µg/mL)

STRUCTURE | MEASURED TARGET | DATA VALUE
COc1ccc2[nH]c3c(c2c1)CCN1OCSC[C@@H](N)[C@@H]31 | Vero | -1.70
Cn1c2c(c3ccccc31)CCN1OCSC[C@@H](N)[C@@H]21 | Vero | 0.30
C[C@@H]1CSCON2CCc3c([nH]c4ccccc34)[C@H]12 | Vero | 1.30
Nc1nccc2c1ncn2[C@@H]1C[C@H](CO)[C@@H](O)[C@H]1O | Vero | 1.30
NC(=O)c1ncn([C@@H]2O[C@H](CO)[C@@H](O)[C@H]2O)n1 | Vero | 1.60
N[C@H]1CSCON2CCc3c([nH]c4ccccc34)[C@@H]12 | Vero | 1.30
N[C@@H]1CSCON2CCc3c([nH]c4ccccc34)[C@H]12 | Vero | -0.70
O[C@@H]1CSCON2CCc3c([nH]c4ccccc34)[C@@H]12 | Vero | 1.30

* * *

- EXPERIMENTAL PROTOCOL: Evaluation for antiviral activity against vaccinia virus in primary rabbit kidney cell cultures(PRK) (Concentration required to reduce virus-induced cytopathogenicity by 50%)
- Type: functional
- CONDITION PARAMETERS: Oryctolagus cuniculus
In plain terms, low MIC, meaning strictly below 2 µg/mL, gives T, and everything else gives F.

COMPOUND | CLASSIFICATION
c1ccc2c3c([nH]c2c1)C1CCSCON1CC3 (stereo not given) | F
N[C@@H]1CSCON2CCc3c([nH]c4ccccc34)[C@@H]12 | F
O=c1[nH]c(=O)n([C@H]2C[C@H](O)[C@@H](CO)O2)cc1/C=C/Br | F
COc1ccc2[nH]c3c(c2c1)CCN1OCSC[C@@H](N)[C@H]31 | F
Nc1nccc2c1ncn2[C@@H]1C[C@H](CO)[C@@H](O)[C@H]1O | T
N[C@H]1CSCON2CCc3c([nH]c4ccccc34)[C@H]12 | F
NC(=O)c1ncn([C@@H]2O[C@H](CO)[C@@H](O)[C@H]2O)n1 | F
Cn1c2c(c3ccccc31)CCN1OCSC[C@@H](N)[C@@H]21 | T
Cn1c2c(c3ccccc31)CCN1OCSC[C@@H](N)[C@H]21 | F

* * *

- Tested on: HeLa
- EXPERIMENTAL PROTOCOL: Compound was evaluated for antiviral activity against respiratory syncitial virus (long) in HeLa cell cultures (Concentration required to reduce virus-induced cytopathogenicity by 50%)
- Assay type: functional
- CONDITION PARAMETERS: Homo sapiens
QUANTITY MEASURED: MIC (mg/L)

COMPOUND | QUANTITY MEASURED | INEQUALITY SIGN | DATA VALUE
N[C@H]1CSCON2CCc3c([nH]c4ccccc34)[C@@H]12 | MIC | = | 3
COc1ccc2[nH]c3c(c2c1)CCN1OCSC[C@@H](N)[C@H]31 | MIC | > | 1.6
c1ccc2c3c([nH]c2c1)C1CCSCON1CC3 (stereo not drawn) | MIC | > | 8
COc1ccc2[nH]c3c(c2c1)CCN1OCSC[C@@H](N)[C@@H]31 | MIC | = | 0.15
N[C@@H]1CSCON2CCc3c([nH]c4ccccc34)[C@@H]12 | MIC | > | 8
N[C@H]1CSCON2CCc3c([nH]c4ccccc34)[C@H]12 | MIC | > | 1.6
N[C@@H]1CSCON2CCc3c([nH]c4ccccc34)[C@H]12 | MIC | = | 0.8
NC(=O)c1ncn([C@@H]2O[C@H](CO)[C@@H](O)[C@H]2O)n1 | MIC | = | 3

* * *

- Test system: Vero
- EXPERIMENTAL PROTOCOL: Evaluation for antiviral activity against parainfluenza-3 virus in Vero cell cultures (Concentration required to reduce virus-induced cytopathogenicity by 50%)
- Type: functional
- CONDITION PARAMETERS: Chlorocebus sabaeus
A collection of compounds and their measured MIC

COMPOUND | MIC
N[C@H]1CSCON2CCc3c([nH]c4ccccc34)[C@H]12 | > 4 µg/mL
COc1ccc2[nH]c3c(c2c1)CCN1OCSC[C@@H](N)[C@H]31 | > 1 µg/mL
C[C@@H]1CSCON2CCc3c([nH]c4ccccc34)[C@H]12 | > 40 µg/mL
N[C@H]1CSCON2CCc3c([nH]c4ccccc34)[C@@H]12 | 7 µg/mL
O=c1[nH]c(=O)n([C@H]2C[C@H](O)[C@@H](CO)O2)cc1/C=C/Br [BRIVUDINE] | > 400 µg/mL
NC(=O)c1ncn([C@@H]2O[C@H](CO)[C@@H](O)[C@H]2O)n1 [RIBAVIRIN] | 20 µg/mL
Cn1c2c(c3ccccc31)CCN1OCSC[C@@H](N)[C@H]21 | > 10 µg/mL
Nc1nccc2c1ncn2[C@@H]1C[C@H](CO)[C@@H](O)[C@H]1O [3-DEAZAARISTEROMYCIN A] | 2 µg/mL
O[C@@H]1CSCON2CCc3c([nH]c4ccccc34)[C@@H]12 | > 40 µg/mL
N[C@@H]1CSCON2CCc3c([nH]c4ccccc34)[C@@H]12 | > 10 µg/mL
N[C@@H]1CSCON2CCc3c([nH]c4ccccc34)[C@H]12 | 0.2 µg/mL
Cn1c2c(c3ccccc31)CCN1OCSC[C@@H](N)[C@@H]21 | 0.7 µg/mL
c1ccc2c3c([nH]c2c1)C1CCSCON1CC3 (stereo not drawn) | > 10 µg/mL

Values were extracted from ChEMBL document CHEMBL1125540.
